# target-desc: human MC3R (human, UniProt P41968 1-323)
# Sequence (P41968 whole entry): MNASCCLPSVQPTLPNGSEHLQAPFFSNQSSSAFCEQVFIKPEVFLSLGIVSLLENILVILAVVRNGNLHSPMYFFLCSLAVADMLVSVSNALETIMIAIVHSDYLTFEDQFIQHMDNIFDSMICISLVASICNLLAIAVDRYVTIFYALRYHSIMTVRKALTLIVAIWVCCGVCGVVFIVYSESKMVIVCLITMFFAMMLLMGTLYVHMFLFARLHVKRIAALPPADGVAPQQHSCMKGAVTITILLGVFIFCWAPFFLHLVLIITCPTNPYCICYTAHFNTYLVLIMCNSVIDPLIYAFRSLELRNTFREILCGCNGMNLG
# experimental-details: cell-based or functional assay
Positions of bridges follow the written chain, without caps; N, C: chain ends. Non-standard residues stand in square brackets, D forms with d. 4Pal = N[C@@H](Cc1ccncc1)C(=O)O; Cit = NC(=O)NCCC[C@H](N)C(=O)O; Aib = CC(C)(N)C(=O)O

binder	% max activation / %
Ac-RC[Aib][4Pal][dF]RFC-NH2 (disulfide 2-8; SMILES CC(=O)N[C@@H](CCCNC(=N)N)C(=O)N[C@H]1CSSC[C@@H](C(N)=O)NC(=O)[C@H](Cc2ccccc2)NC(=O)[C@H](CCCNC(=N)N)NC(=O)[C@@H](Cc2ccccc2)NC(=O)[C@H](Cc2ccncc2)NC(=O)C(C)(C)NC1=O) [CTX-1606]	7.69
Ac-RCG[Cit][dF]RWC-NH2 (disulfide 2-8) [CTX-1294]	33

Values compiled from patent US20240391954A1.
